Taken from ChEMBL document CHEMBL2331490.

# SYSTEM: Acetylcholinesterase (Electrophorus electricus, UniProt O42275)
# Sequence (O42275 whole entry): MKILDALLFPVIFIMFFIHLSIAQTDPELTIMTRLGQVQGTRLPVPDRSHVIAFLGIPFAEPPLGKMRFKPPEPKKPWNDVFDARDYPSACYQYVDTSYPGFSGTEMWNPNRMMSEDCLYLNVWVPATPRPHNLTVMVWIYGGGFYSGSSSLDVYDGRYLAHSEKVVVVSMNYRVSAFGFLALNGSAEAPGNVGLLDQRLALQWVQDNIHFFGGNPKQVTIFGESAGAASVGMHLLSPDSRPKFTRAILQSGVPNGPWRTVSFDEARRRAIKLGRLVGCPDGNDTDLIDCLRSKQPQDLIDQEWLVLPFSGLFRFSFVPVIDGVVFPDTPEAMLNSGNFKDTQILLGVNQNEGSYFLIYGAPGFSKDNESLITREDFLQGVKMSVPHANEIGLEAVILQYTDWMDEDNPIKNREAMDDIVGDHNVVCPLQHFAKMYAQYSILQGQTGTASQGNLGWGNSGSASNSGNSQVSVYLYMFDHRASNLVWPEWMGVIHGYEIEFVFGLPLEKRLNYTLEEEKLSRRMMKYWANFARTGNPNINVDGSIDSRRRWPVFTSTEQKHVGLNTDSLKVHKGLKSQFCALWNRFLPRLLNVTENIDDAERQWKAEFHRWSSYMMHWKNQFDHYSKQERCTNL
Lab note: cut-off is 30 µM. Strictly less in IC50 is Condition met. Exactly 30 µM or more is Condition not met.

{"columns": ["SMILES_ENTRY", "CLASS"],
 "data": [
  ["CCC[C@H](NC(=O)OCC)C(=O)N[C@H](C)c1nc2ccc(F)cc2s1", "Condition not met"],
  ["CCCCOC(=O)N[C@@H](CCC)C(=O)N[C@H](C)c1nc2ccc(F)cc2s1", "Condition met"],
  ["CC(C)[C@H](NC(=O)OCCBr)C(=O)N[C@H](C)c1nc2ccc(F)cc2s1", "Condition not met"],
  ["CCC[C@H](NC(=O)OCC(C)C)C(=O)N[C@H](C)c1nc2ccc(F)cc2s1", "Condition met"],
  ["CCOC(=O)N[C@H](C(=O)N[C@H](C)c1nc2ccc(F)cc2s1)C(C)C", "Condition not met"],
  ["CCCOC(=O)N[C@@H](CCC)C(=O)N[C@H](C)c1nc2ccc(F)cc2s1", "Condition met"],
  ["CC(C)[C@H](NC(=O)OCC(F)(F)F)C(=O)N[C@H](C)c1nc2ccc(F)cc2s1", "Condition not met"],
  ["CCC[C@H](NC(=O)OCC(Cl)(Cl)Cl)C(=O)N[C@H](C)c1nc2ccc(F)cc2s1", "Condition met"],
  ["CCC[C@H](NC(=O)OCCCl)C(=O)N[C@H](C)c1nc2ccc(F)cc2s1", "Condition not met"],
  ["CC(C)[C@H](NC(=O)OCCCl)C(=O)N[C@H](C)c1nc2ccc(F)cc2s1", "Condition not met"],
  ["CC(C)COC(=O)N[C@H](C(=O)N[C@H](C)c1nc2ccc(F)cc2s1)C(C)C", "Condition not met"],
  ["COC(=O)N[C@H](C(=O)N[C@H](C)c1nc2ccc(F)cc2s1)C(C)C", "Condition not met"]
]}

---

# MEASUREMENT_PROTOCOL: Lipophilicity, log P of the compound calculated using ChemOffice software
Consider the following compounds and their measured logP readings.
MEASUREMENT_KIND: logP

{"columns": ["COMPOUND", "MEASUREMENT_KIND", "RESULT_VALUE"],
 "data": [
  ["CC(C)[C@H](NC(=O)OCC(F)(F)C(F)(F)C(F)(F)F)C(=O)N[C@H](C)c1nc2ccc(F)cc2s1", "logP", 5.35],
  ["CCCOC(=O)N[C@H](C(=O)N[C@H](C)c1nc2ccc(F)cc2s1)C(C)C", "logP", 3.99],
  ["CCCCOC(=O)N[C@H](C(=O)N[C@H](C)c1nc2ccc(F)cc2s1)C(C)C", "logP", 4.41],
  ["CC(C)[C@H](NC(=O)OCCBr)C(=O)N[C@H](C)c1nc2ccc(F)cc2s1", "logP", 4],
  ["CC(C)[C@H](NC(=O)OCCCl)C(=O)N[C@H](C)c1nc2ccc(F)cc2s1", "logP", 3.88],
  ["COC(=O)N[C@H](C(=O)N[C@H](C)c1nc2ccc(F)cc2s1)C(C)C", "logP", 3.17],
  ["CCN(C)C(=O)Oc1cccc([C@H](C)N(C)C)c1 [RIVASTIGMINE]", "logP", 2.36],
  ["CCC[C@H](NC(=O)OCCCl)C(=O)N[C@H](C)c1nc2ccc(F)cc2s1", "logP", 3.9],
  ["CCOC(=O)N[C@H](C(=O)N[C@H](C)c1nc2ccc(F)cc2s1)C(C)C", "logP", 3.51],
  ["CC(C)[C@H](NC(=O)OCC(F)(F)F)C(=O)N[C@H](C)c1nc2ccc(F)cc2s1", "logP", 4.15],
  ["CCC[C@H](NC(=O)OC)C(=O)N[C@H](C)c1nc2ccc(F)cc2s1", "logP", 3.19],
  ["CCC[C@H](NC(=O)OCC(F)(F)C(F)(F)C(F)(F)F)C(=O)N[C@H](C)c1nc2ccc(F)cc2s1", "logP", 5.37],
  ["CCCCOC(=O)N[C@@H](CCC)C(=O)N[C@H](C)c1nc2ccc(F)cc2s1", "logP", 4.43],
  ["CCC[C@H](NC(=O)OCC(F)(F)C(F)F)C(=O)N[C@H](C)c1nc2ccc(F)cc2s1", "logP", 4.11],
  ["CC(C)COC(=O)N[C@H](C(=O)N[C@H](C)c1nc2ccc(F)cc2s1)C(C)C", "logP", 4.39],
  ["CC(C)[C@H](NC(=O)OCC(Cl)(Cl)Cl)C(=O)N[C@H](C)c1nc2ccc(F)cc2s1", "logP", 4.89],
  ["CCC[C@H](NC(=O)OCC(F)(F)F)C(=O)N[C@H](C)c1nc2ccc(F)cc2s1", "logP", 4.16],
  ["CCC[C@H](NC(=O)OCC(C)C)C(=O)N[C@H](C)c1nc2ccc(F)cc2s1", "logP", 4.41],
  ["COc1ccc2c3c1O[C@H]1C[C@@H](O)C=C[C@@]31CCN(C)C2 [GALANTAMINE]", "logP", 1.41],
  ["CC(C)OC(=O)N[C@H](C(=O)N[C@H](C)c1nc2ccc(F)cc2s1)C(C)C [BENTHIAVALICARB-ISOPROPYL]", "logP", 3.82],
  ["CCC[C@H](NC(=O)OC(C)C)C(=O)N[C@H](C)c1nc2ccc(F)cc2s1", "logP", 3.84],
  ["CC(C)[C@H](NC(=O)OCC(F)(F)C(F)F)C(=O)N[C@H](C)c1nc2ccc(F)cc2s1", "logP", 4.09],
  ["CCC[C@H](NC(=O)OCC)C(=O)N[C@H](C)c1nc2ccc(F)cc2s1", "logP", 3.52],
  ["CCC[C@H](NC(=O)OCC(Cl)(Cl)Cl)C(=O)N[C@H](C)c1nc2ccc(F)cc2s1", "logP", 4.91],
  ["CCCOC(=O)N[C@@H](CCC)C(=O)N[C@H](C)c1nc2ccc(F)cc2s1", "logP", 4.01]
]}
